# System name: Proteasome subunit beta (Trypanosoma cruzi) (UniProt O96673)
# Sequence (whole entry): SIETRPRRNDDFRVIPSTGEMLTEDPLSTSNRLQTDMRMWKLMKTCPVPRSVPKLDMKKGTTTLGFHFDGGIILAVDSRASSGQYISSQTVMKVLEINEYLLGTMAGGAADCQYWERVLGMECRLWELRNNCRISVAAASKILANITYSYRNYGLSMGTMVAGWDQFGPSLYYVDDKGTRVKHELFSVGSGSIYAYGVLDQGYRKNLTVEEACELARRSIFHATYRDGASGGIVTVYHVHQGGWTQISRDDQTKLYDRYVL
# Method notes: Trypanosoma cruzi proteasome chymotrypsin-like activity (TcProtChymo) assay.
# Assay type: functional
# Parameters: scale not given: in the data most compounds retested in dose-response had high values
# Measurement setup: 9.37 µM
Quantity: Percent Effect (%)

[[record]]
molecule = "CCN(CC)CC(=O)NCCc1csc(N2CCCC2)n1"
assay_result = 5.41

[[record]]
molecule = "CC(C)Oc1ccccc1C1CC(=O)Nc2c1cnn2C (stereo unspecified)"
assay_result = 15.6

[[record]]
molecule = "Cc1cccc(NC2CCN(C(=O)Nc3cccc4[nH]ccc34)CC2)n1"
assay_result = 3.85

[[record]]
molecule = "Cc1ncc(CN(C)C2CCCN(Cc3noc(C4CC4)n3)C2)s1 (stereo unspecified)"
assay_result = 8.02

[[record]]
molecule = "CC(=O)N1CCC(C(=O)N(C)[C@@H]2CCC[C@@H](N3CCCC3)[C@@H]2O)CC1"
assay_result = 13.4

[[record]]
molecule = "O=C(NCc1cccc(F)c1)N1CCC2(CC(=O)N(c3ccsc3)C2)C1 (stereo unspecified)"
assay_result = 15.1

